Test: Tumor drug concentration in HT29 xenografts
Type: in vivo, mice
Conditions: female, CRTac:Ncr-Fox1(nu) athymic, mouse, oral, 24h following 12.5mg/kg p.o., with gemcitabine
Method: Human tumor xenografts were established s.c. in female […]) athymic mice and treated as previously described. […] Compounds were extracted from whole blood, plasma and tissue homogenates with methanol-containing internal standards using established protocols. Drug concentrations were determined using liquid chromatography/tandem mass spectrometry (LC/MS-MS) and pharmacokinetics were calculated using Pharsight WinNonLin software (version 5.2.1) as previously described.

| chemical structure | concentration at 24 h |
| --- | --- |
| N#Cc1cnc(Nc2cc(NC[C@H]3CNCCO3)c(C(F)(F)F)cn2)cn1 | ≥ 3000 nM |
